Reported pEC50 values for the following substances.
Molecular target: human GcgR (Homo sapiens)
Sequence (P47871 26-477): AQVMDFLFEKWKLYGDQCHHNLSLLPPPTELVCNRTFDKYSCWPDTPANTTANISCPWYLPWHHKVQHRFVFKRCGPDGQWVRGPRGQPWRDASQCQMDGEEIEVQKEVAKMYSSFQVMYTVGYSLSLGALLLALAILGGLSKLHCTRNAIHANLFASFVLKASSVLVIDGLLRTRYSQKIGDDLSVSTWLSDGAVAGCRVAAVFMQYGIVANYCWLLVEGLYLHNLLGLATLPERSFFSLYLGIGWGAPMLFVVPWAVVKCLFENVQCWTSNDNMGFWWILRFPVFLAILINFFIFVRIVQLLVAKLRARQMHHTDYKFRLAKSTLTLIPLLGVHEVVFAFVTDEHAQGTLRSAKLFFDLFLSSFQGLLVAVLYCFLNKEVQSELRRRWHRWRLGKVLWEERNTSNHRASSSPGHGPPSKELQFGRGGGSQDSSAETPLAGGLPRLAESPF
Test: Functional cAMP activity in the presence of 1% HSA
Type: cell-based
Settings: read-out: cAMP Rel EC50, hGcgR
pEC50: −log10 of the molar value. Starred links: 1 amine or outer side, 2 acyl side, 3 side chain; linkers in the order of their positions; H or OH if unused. Non-standard residues stand in square brackets, D forms with d. Groups on a side chain read outwards from the residue. No end group written: not given here. *: point of attachment. C20 diacid = O=C(O)CCCCCCCCCCCCCCCCCCC(=O)*; C18 diacid = O=C(O)CCCCCCCCCCCCCCCCC(=O)*; αMePhe(2-F) = C[C@](N)(Cc1ccccc1F)C(=O)O; γGlu = O=C(O)[C@H](CCC(=O)[*:2])N[*:1]; αMe4Pal = C[C@](N)(Cc1ccncc1)C(=O)O; αMeY = C[C@](N)(Cc1ccc(O)cc1)C(=O)O; 4Pal = N[C@@H](Cc1ccncc1)C(=O)O; αMeL = CC(C)C[C@](C)(N)C(=O)O; αMeS = C[C@](N)(CO)C(=O)O; Orn = NCCC[C@H](N)C(=O)O; AEEA = NCCOCCOCC(=O)O; Aib = CC(C)(N)C(=O)O
assay.readout: pEC50

INSERT INTO results (substance, system_under_test, measurement) VALUES
  ('H-Y[Aib]QGTFTSDFS[Orn][αMeL]LDKK([AEEA-AEEA-γGlu-C20 diacid])AQ[Aib]AFIEYLLE[Aib]GPSSGAPPPSEG-NH2 [Example 71]', 'human GcgR (Homo sapiens)', 5.55),
  ('H-Y[Aib]QGTFTSD[4Pal]SQ[αMeL]LDKK([γGlu-γGlu-C18 diacid])AQ[αMe4Pal]AFIEWLIEGGPSSGAPPPSGS-NH2 [Example 872]', 'human GcgR (Homo sapiens)', 5.72),
  ('Y[Aib]QGTFTSD[4Pal]SQ[αMeL]LDKK([dE-γGlu-C18 diacid])AQ[αMe4Pal]AFIEYLIE[Aib]GPSSGAPPPSGSEE-NH2 [Example 928]', 'human GcgR (Homo sapiens)', 5.96),
  ('H-Y[Aib]QGTFTSDYSI[αMeL]LDKK([AEEA-AEEA-γGlu-C20 diacid])AA[Aib]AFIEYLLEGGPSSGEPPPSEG-NH2 [Example 294]', 'human GcgR (Homo sapiens)', 6.29),
  ('H-Y[Aib]QGT[αMePhe(2-F)]TSD[4Pal][αMeS]I[αMeL]LD[Orn]K([AEEA-γGlu-C18 diacid])AQ[αMe4Pal]EFI[dE][αMeY]LIEGGPSSGEPPPSGGGE-NH2 [Example 742]', 'human GcgR (Homo sapiens)', 6.69),
  ('H-Y[Aib]QGTFTSD[4Pal][αMeS]Q[αMeL]LD[Orn]K([dE-γGlu-C18 diacid])AQ[αMe4Pal]QFIQ[αMeY]LIAGGPSSGEPPPSGGGE-NH2 [Example 1133]', 'human GcgR (Homo sapiens)', 6.67);
